Data origin, for the record: patent US20120207763A1

subject of test: CDK2/Cyclin-A kinase complex (Homo sapiens)
assay: CDK2 IMAP fluorescence polarization assay
Assay type: biochemical
condition label: Table E; read-out: CDK2cyA IMAP/IC50 [umol l − 1]
property label: IC50

Worked set:
>>> result("CCC(CC)n1c(C)cc2cnc(Nc3ccc(N4CCN(C(C)=O)CC4)cc3)nc21 [Example 330]")
"< 1 µM"
>>> result("CCC(CC)n1ccc2cnc(Nc3ccc(C(=O)N4CCOCC4)cc3)nc21 [Example 212]")
"< 1 µM"
>>> result("CCC(CC)n1c(CNc2cccnc2)cc2cnc(Nc3ccc(N4CCN(C(C)=O)CC4)cc3)nc21 [Example 369]")
"< 10 µM"
>>> result("CN(C)C(=O)c1cc2cnc(Nc3ccc(CN4CCOCC4)cc3)nc2n1C1CCCC1 [Example 340]")
"< 10 µM"

Fill in the blank: the reported IC50 of Cc1cn(-c2cccnc2)c2nc(Nc3ccc(N4CCNCC4)cc3)ncc12 [Example 322] is ____. > 10 µM

Fill in the blank: the reported IC50 of Cc1cn(C2CCCC2)c2nc(Nc3ccc(CN4CCNC(=O)C4)cc3)ncc12 [Example 290] is ____. < 10 µM

Fill in the blank: the reported IC50 of c1cc(N2CCNCC2)ccc1Nc1ncc2ccn(C34CC5CC(CC(C5)C3)C4)c2n1 [Example 245] is ____. < 1 µM

Fill in the blank: the reported IC50 of CCC(CC)n1c(C(=O)Nc2ccc(C(F)(F)F)cc2)cc2cnc(Nc3ccc(N4CCNCC4)cc3)nc21 [Example 359] is ____. < 10 µM

---

The reader will find reported IC50 values listed item by item below.
subject of test: CDK2/Cyclin-A kinase complex (Homo sapiens)
assay: CDK2 IMAP fluorescence polarization assay
Assay type: biochemical
condition label: Table E; read-out: CDK2cyA IMAP/IC50 [umol l − 1]

Worked set:
>>> result("CCC(CC)n1c(C(=O)O)cc2cnc(Nc3ccc(N4CCNCC4)cc3)nc21")
"< 1 µM"
>>> result("Cc1cn(C2CCCC2)c2nc(Nc3ccc(CN4CCNCC4)cc3)ncc12")
"< 10 µM"
>>> result("CCC(CC)n1c(C(C)OC)cc2cnc(Nc3ccc(N4CCNCC4)cc3)nc21 (centres unmarked)")
"< 10 µM"
>>> result("CCC(CC)n1c(C=NOC)cc2cnc(Nc3ccc(N4CCN(C(C)=O)CC4)cc3)nc21")
"< 10 µM"
>>> result("Cc1cn(C2CCCC2)c2nc(Nc3ccc4[nH]ncc4c3)ncc12")
"< 10 µM"
>>> result("CC(=O)c1c(C)n(C2CCCC2)c2nc(Nc3ccc(N4CCNCC4)cc3)ncc12")
"10 µM"
>>> result("Cc1c(-c2cnco2)n(C2CCCC2)c2nc(Nc3ccc(CN4CCOCC4)cc3)ncc12")
"< 1 µM"
>>> result("CC1CCCC(n2ccc3cnc(Nc4ccc(N5CCNCC5)cc4)nc32)C1 (centres unmarked)")
"< 10 µM"

Fill in the blank: the reported IC50 of `Cc1cn(C2CCCC2)c2nc(Nc3ccccc3Cl)ncc12` is ____. > 10 µM

Fill in the blank: the reported IC50 of `CCC(CC)n1c(C(=O)O)cc2cnc(Nc3ccc(N4CCN(C(C)=O)CC4)cc3)nc21` is ____. < 1 µM

Fill in the blank: the reported IC50 of `CCC(CC)n1c(-c2cnco2)cc2cnc(Nc3ccc(N4CCN(C(C)=O)CC4)cc3)nc21` is ____. < 1 µM

Fill in the blank: the reported IC50 of `Cc1c(-c2cnco2)n(C2CCCC2)c2nc(Nc3ccc(N4CCNCC4)cc3)ncc12` is ____. < 1 µM

Fill in the blank: the reported IC50 of `Cc1cn(C2CCCCC2)c2nc(Nc3ccc4[nH]ncc4c3)ncc12` is ____. > 10 µM

---

The reader will find reported IC50 values listed item by item below.
subject of test: CDK2/Cyclin-A kinase complex (Homo sapiens, UniProt P24941)
assay: CDK2 IMAP fluorescence polarization assay
Type: biochemical
condition label: Table C; read-out: CDK2 IC50

>>> result("CC1CN(C2CCCC2)c2nc(Nc3ccc(N4CCN(C)CC4)cc3)ncc21 (centres unmarked)")
"> 10 µM"

Fill in the blank: the reported IC50 of CCC(CC)N1C(=O)C(C)(C)c2cnc(Nc3ccc(N4CCN(C)CC4)cc3)nc21 [drawing 155] is ____. < 10 µM

Fill in the blank: the reported IC50 of `CCC(CC)N1C(=O)Cc2cnc(Nc3ccc(N4CCNCC4)cn3)nc21` is ____. < 10 µM

Fill in the blank: the reported IC50 of `CCC(CC)N1C(=O)C(C)(C)c2cnc(Nc3ccc(N4CCNCC4)cn3)nc21` is ____. > 10 µM

Fill in the blank: the reported IC50 of `CCC(CC)N1C(=O)C(C)(C)c2cnc(Nc3ccc(N4CCN(C(C)=O)CC4)cn3)nc21` is ____. > 10 µM

---

The reader will find reported pIC50 values listed item by item below.
subject of test: CDK2/Cyclin-A kinase complex (Homo sapiens, UniProt P24941)
assay: CDK2 IMAP fluorescence polarization assay
Type: biochemical
condition label: Table E; read-out: CDK2cyA IMAP/IC50 [umol l − 1]
pIC50: −log10 of the molar value.

Worked set:
>>> result("Cc1cn(C2CCCC2)c2nc(Nc3ccc4[nH]c(=O)[nH]c4c3)ncc12")
"> 5.00"
>>> result("CCC(CC)n1c(C(=O)Nc2cccnc2)cc2cnc(Nc3ccc(N4CCNCC4)cc3)nc21")
"< 5.00"
>>> result("Brc1cn(C2CCCC2)c2nc(Nc3ccc(N4CCNCC4)cn3)ncc12")
"< 5.00"
>>> result("CCC(CC)n1c(CNC(C)C)cc2cnc(Nc3ccc(N4CCNCC4)cc3)nc21")
"> 5.00"
>>> result("CC(=O)c1c(C)c2cnc(Nc3ccc(N4CCNCC4)cn3)nc2n1C1CCCC1")
5.00

Fill in the blank: the reported pIC50 of `CC(=O)c1c(C)c2cnc(Nc3ccc(N4CCNCC4)cn3)nc2n1C1CCCCCC1` is ____. > 5.00

---

subject of test: CDK4/Cyclin-D1 kinase complex (Homo sapiens)
Sequence (P11802 whole entry): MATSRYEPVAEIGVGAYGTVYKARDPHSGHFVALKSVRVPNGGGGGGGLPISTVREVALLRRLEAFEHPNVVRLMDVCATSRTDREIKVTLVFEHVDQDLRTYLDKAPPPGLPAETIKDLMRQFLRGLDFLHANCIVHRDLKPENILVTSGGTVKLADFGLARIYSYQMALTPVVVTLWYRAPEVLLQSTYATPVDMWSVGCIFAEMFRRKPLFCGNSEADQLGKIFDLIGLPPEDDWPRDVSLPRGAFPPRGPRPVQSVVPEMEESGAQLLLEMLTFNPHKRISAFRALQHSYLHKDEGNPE
Sequence (P24385 whole entry partner): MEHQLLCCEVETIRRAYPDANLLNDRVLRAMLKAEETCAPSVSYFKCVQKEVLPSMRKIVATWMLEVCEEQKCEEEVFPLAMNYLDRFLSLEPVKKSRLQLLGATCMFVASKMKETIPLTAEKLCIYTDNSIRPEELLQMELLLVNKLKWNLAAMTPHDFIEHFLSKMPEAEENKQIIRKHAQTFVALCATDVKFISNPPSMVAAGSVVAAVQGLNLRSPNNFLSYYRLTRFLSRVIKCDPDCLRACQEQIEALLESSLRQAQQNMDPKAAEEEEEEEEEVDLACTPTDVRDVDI
assay: CDK4 ELISA based assay, Rb Ser780 phosphorylation
Type: biochemical
condition label: Table E; read-out: CDK4 ELISA assay IC50 [umol l−]
The reader will find reported IC50 values listed item by item below.

Worked set:
>>> result("CCC(CC)n1c(C=NOC)cc2cnc(Nc3ccc(N4CCN(C(C)=O)CC4)cc3)nc21")
"> 10 µM"
>>> result("CCC(CC)n1c(CO)cc2cnc(Nc3ccc(N4CCN(C(C)=O)CC4)cc3)nc21")
"> 10 µM"
>>> result("CCC(CC)n1ccc2cnc(Nc3ccc(C(=O)NC4CCCC4)cc3)nc21")
"> 10 µM"
>>> result("CCC(CC)n1ccc2cnc(Nc3ccc(C(=O)N4CCOCC4)cc3)nc21")
"< 10 µM"

Fill in the blank: the reported IC50 of `c1cc2cn[nH]c2cc1Nc1ncc2ccn(C3CCCC3)c2n1` is ____. < 10 µM

Fill in the blank: the reported IC50 of `CCC(CC)n1ccc2cnc(NC3CCCC3)nc21` is ____. > 10 µM

---

subject of test: CDK2/Cyclin-A kinase complex (Homo sapiens, UniProt P24941)
assay: CDK2 IMAP fluorescence polarization assay
Assay type: biochemical
condition label: Table E; read-out: CDK2cyA IMAP/IC50 [umol l − 1]
property label: IC50

Fill in the recorded IC50 for this compound, with CDK2/Cyclin-A kinase complex (Homo sapiens, UniProt P24941) as test system: CC(=O)N1CCN(c2ccc(Nc3ncc4ccn(C5CCCC(C)C5)c4n3)cc2)CC1 (centres unmarked) < 10 µM

---

subject of test: hCDK1/B (Homo sapiens, UniProt P06493)
Sequence (P06493 whole entry): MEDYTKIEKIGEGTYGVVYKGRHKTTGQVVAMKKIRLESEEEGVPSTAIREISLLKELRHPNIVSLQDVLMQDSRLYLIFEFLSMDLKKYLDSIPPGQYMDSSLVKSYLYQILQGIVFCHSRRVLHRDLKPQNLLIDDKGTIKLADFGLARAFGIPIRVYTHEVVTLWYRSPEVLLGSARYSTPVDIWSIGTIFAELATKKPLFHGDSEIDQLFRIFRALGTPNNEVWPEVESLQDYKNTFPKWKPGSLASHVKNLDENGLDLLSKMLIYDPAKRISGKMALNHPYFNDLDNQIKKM
Sequence (P14635 whole entry partner): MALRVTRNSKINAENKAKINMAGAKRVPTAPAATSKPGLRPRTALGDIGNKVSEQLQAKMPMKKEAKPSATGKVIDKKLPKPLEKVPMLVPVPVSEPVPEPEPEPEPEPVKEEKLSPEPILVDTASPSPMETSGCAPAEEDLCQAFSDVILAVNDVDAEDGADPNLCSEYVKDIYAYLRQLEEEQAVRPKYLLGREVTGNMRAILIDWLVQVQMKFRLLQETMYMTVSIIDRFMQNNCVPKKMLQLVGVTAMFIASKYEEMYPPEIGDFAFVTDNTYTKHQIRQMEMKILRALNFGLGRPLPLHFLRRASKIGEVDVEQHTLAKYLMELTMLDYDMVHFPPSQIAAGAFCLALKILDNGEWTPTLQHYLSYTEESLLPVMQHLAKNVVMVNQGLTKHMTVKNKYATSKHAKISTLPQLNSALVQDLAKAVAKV
assay: hCDK1/B assay
condition label: Table E; read-out: hCDK1/B/IC50 [umol l − 1]
The reader will find reported IC50 values listed item by item below.

Fill in the blank: the reported IC50 of CCC(CC)n1c(C(=O)N(C)C)cc2cnc(Nc3ccc(CN4CCN(C(=O)OC(C)(C)C)CC4)cc3)nc21 [Example 465] is ____. < 10 µM

Fill in the blank: the reported IC50 of Cc1cn(C2CCCC2)c2nc(Nc3ccc4[nH]c(=O)[nH]c4c3)ncc12 [Example 279] is ____. < 10 µM

Fill in the blank: the reported IC50 of CCC(CC)n1c(C(=O)Nc2cccc(F)c2)cc2cnc(Nc3ccc(N4CCNCC4)cc3)nc21 [Example 357] is ____. < 10 µM

Fill in the blank: the reported IC50 of Cc1c(-c2cnco2)n(C2CCCC2)c2nc(Nc3ccc(CN4CCOCC4)cc3)ncc12 [Example 401] is ____. < 1 µM

---

subject of test: hCDK1/B (Homo sapiens)
assay: hCDK1/B assay
condition label: Table E; read-out: hCDK1/B/IC50 [umol l − 1]
pIC50: −log10 of the molar value.
property label: pIC50

Worked set:
>>> result("CCN(CC)c1ccc(Nc2ncc3c(C)cn(C4CCCC4)c3n2)cc1")
"< 5.00"
>>> result("CCC(CC)n1c(C(=O)N(C)C)cc2cnc(Nc3ccc(CN4CCNCC4)cc3)nc21")
"> 5.00"
>>> result("Cc1cn(C2CCCC2)c2nc(Nc3ccc(N4CCNCC4)cn3)ncc12")
"< 5.00"

Fill in the blank: the reported pIC50 of `Cc1c(C#N)n(C2CCCC2)c2nc(Nc3ccc(N4CCNCC4)cn3)ncc12` is ____. > 5.00

Fill in the blank: the reported pIC50 of `Cc1cn(-c2c[nH]cn2)c2nc(Nc3ccc(N4CCNCC4)cn3)ncc12` is ____. < 5.00
